Experiment: Sulforhodamine B (SRB) cell viability assay
Assay type: cell-based
Details: cell viability, β-amyloid combined with Cyclic T14, β-Amyloid (10 μM) + Cyclic T14 1 nM, 1 hour
Residues, ends and D or L forms follow the SMILES beside them.
experimental_endpoint: viability (%)
Unit % implied. Number only.

[ask] Fill in reported viability for this entry: CSCC[C@@H]1NC(=O)[C@H](Cc2ccc(O)cc2)NC(=O)[C@H](CO)NC(=O)[C@H](CO)NC(=O)[C@H](Cc2c[nH]c3ccccc23)NC(=O)[C@H](CCCNC(=N)N)NC(=O)[C@H](Cc2c[nH]cn2)NC(=O)[C@H](Cc2ccccc2)NC(=O)[C@H](CCC(=O)O)NC(=O)[C@H](C)NC(=O)[C@H](CCCCN)NC(=O)[C@H](Cc2c[nH]c3ccccc23)NC(=O)[C@H](Cc2c[nH]cn2)NC(=O)[C@H](C(C)C)NC1=O [Cyclic T14] (cyclo(AEFHRWSSYMVHWK))
[reply] 97.3

Origin of the recorded values: patent US12139729B2
